// values below are reported Drug metabolism
# Test details: Drug metabolism in pH 7.4 Tris-HCl buffer assessed as amount of phosphate ester metabolite formation at […] in presence of sphingosine kinase 1,2 and Mg-ATP incubated for 30 mins by TLC based analysis relative to fingolimod

Look over these answered cases.
N[C@]1(CO)CC[C@H](c2ccc3c(c2)CC[C@@H](CCc2ncccn2)C3)C1 :: 4%
N[C@]1(CO)CC[C@H](c2ccc3c(c2)CC[C@@H](CCc2cccnc2)C3)C1 :: 3%
N[C@]1(CO)CC[C@H](c2ccc3c(c2)CC[C@H](CCc2cccnc2)C3)C1 :: 24%

Quick one: Drug metabolism of N[C@]1(CO)CC[C@H](c2ccc3c(c2)CC[C@H](CCc2ncccn2)C3)C1 ?
6%

Quick one: Drug metabolism of N[C@]1(CO)CC[C@H](c2ccc3c(c2)CC[C@@H](CCc2ccccn2)C3)C1 ?
4%

Quick one: Drug metabolism of N[C@]1(CO)CC[C@H](c2ccc3c(c2)CCC(CCc2ccncc2)C3)C1 (single isomer, unassigned) ?
0%

Quick one: Drug metabolism of Cn1ccc(CC[C@@H]2CCc3cc([C@H]4CC[C@](N)(CO)C4)ccc3C2)n1 ?
8%

----------
# Test details: Drug metabolism in Balb/c mouse blood assessed as concentration of parent compound at 30 mg/kg, po measured at 24 hrs by LC-MS/MS analysis
# Assay type: ADME, organism-based
# Condition parameters: Balb/c, blood, read-out: Ct
Readout name: concentration at 24 h (nM)
Numeric only. Scale: nM

Quick one: concentration at 24 h of CCCCCC[C@@H]1CCc2cc([C@H]3CC[C@](N)(CO)C3)ccc2C1 ?
1200

----------
# Test details: Drug metabolism in Balb/c mouse blood assessed as concentration of parent compound at 15 mg/kg, po measured at 4 hrs by LC-MS/MS analysis
# Assay type: ADME, organism-based
# Condition parameters: read-out: Ct
Readout name: concentration at 4 h
Please provide the amount together with its unit, number first.

Quick one: concentration at 4 h of N[C@]1(CO)CC[C@H](c2ccc3c(c2)CC[C@@H](CCc2ccccc2)C3)C1 ?
150 nM

----------
# Test details: Drug metabolism in Lewis rat blood assessed as concentration of parent compound at 2 mg/kg, po measured at 24 hrs by LC-MS/MS analysis
# Type: ADME, organism-based
# Condition parameters: read-out: Ct
Readout name: concentration at 24 h (nM)
Numeric only. Scale: nM

Look over these answered cases.
COc1ccc(CC[C@@H]2CCc3cc([C@H]4CC[C@](N)(CO)C4)ccc3C2)cc1 :: 40
COc1ccccc1CC[C@H]1CCc2cc([C@H]3CC[C@](N)(CO)C3)ccc2C1 :: 50
COc1cccc(CC[C@H]2CCc3cc([C@H]4CC[C@](N)(CO)C4)ccc3C2)c1 :: 210
COc1ccc(CC2CCc3cc([C@H]4CC[C@](N)(CO)C4)ccc3C2)cc1 (stereo in doubt; 13b) :: 60

Proceeding to the next compound to report its concentration at 24 h.
Quick one: concentration at 24 h of COc1cccc(CC[C@@H]2CCc3cc([C@H]4CC[C@](N)(CO)C4)ccc3C2)c1 ?
80

----------
# Assay system: Cytochrome P450 2C9 (Homo sapiens)
# Sequence (P11712 whole entry): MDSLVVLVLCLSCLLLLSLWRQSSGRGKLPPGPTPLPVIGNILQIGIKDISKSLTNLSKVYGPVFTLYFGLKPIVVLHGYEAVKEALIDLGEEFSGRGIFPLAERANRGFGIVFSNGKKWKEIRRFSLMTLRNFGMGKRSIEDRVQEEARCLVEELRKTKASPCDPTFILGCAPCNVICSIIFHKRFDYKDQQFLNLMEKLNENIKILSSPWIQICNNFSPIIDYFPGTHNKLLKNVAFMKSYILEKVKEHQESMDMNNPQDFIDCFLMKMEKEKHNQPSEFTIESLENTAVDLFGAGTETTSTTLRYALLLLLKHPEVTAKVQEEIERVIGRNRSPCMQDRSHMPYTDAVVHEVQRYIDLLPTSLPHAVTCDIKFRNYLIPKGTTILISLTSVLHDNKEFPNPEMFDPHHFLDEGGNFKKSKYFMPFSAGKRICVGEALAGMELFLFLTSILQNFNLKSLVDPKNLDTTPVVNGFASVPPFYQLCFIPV
Readout name: IC50 (µM)
Numeric only. Scale: µM

Quick one: IC50 of COc1ccccc1CC[C@@H]1CCc2cc([C@H]3CC[C@](N)(CO)C3)ccc2C1 [UDIFITIMOD] ?
14

----------
# Test details: Drug metabolism in Lewis rat blood assessed as concentration of parent compound at 2 mg/kg, po measured at 24 hrs by LC-MS/MS analysis
# Type: ADME, organism-based
# Condition parameters: read-out: Ct
Assign TRUE to entries whose concentration at 24 h meets or exceeds 40 nM; assign FALSE to the rest.

Answered examples (3):
COc1ccccc1CC[C@@H]1CCc2cc([C@H]3CC[C@](N)(CO)C3)ccc2C1 [UDIFITIMOD] :: FALSE
N[C@]1(CO)CC[C@H](c2ccc3c(c2)CC[C@H](CCc2ccccc2)C3)C1 :: TRUE
COc1cccc(CC2CCc3cc([C@H]4CC[C@](N)(CO)C4)ccc3C2)c1 (stereo in doubt; 12a) :: FALSE

Determine whether this compound has concentration at 24 h no lower than 40 nM: N[C@]1(CO)CC[C@H](c2ccc3c(c2)CC[C@@H](CCc2ccccc2)C3)C1
TRUE

----------
# Test details: Drug metabolism in Balb/c mouse blood assessed as concentration of parent compound at 1 mg/kg, po measured at 4 hrs by LC-MS/MS analysis
# Type: ADME, organism-based
# Condition parameters: in vivo, 1 mg/kg, 4 h, 1 mg/kg, 4 h, read-out: Ct
Readout name: concentration (nM)
Numeric only. Scale: nM

N[C@]1(CO)CC[C@H](c2ccc3c(c2)CCC(c2ccccc2)C3)C1 (stereo in doubt; 8b) :: 16

Proceeding to the next compound to report its concentration.
Quick one: concentration of N[C@]1(CO)CC[C@H](c2ccc3c(c2)CCC(c2ccccc2)C3)C1 (stereo in doubt; 8a) ?
44

----------
# Test details: Drug metabolism in Balb/c mouse blood assessed as concentration of parent compound at 30 mg/kg, po measured at 24 hrs by LC-MS/MS analysis
# Type: ADME, organism-based
# Condition parameters: in vivo, 30 mg/kg, 24 h, 30 mg/kg, 24 h, read-out: Ct
Readout name: concentration (nM)
Numeric only. Scale: nM

N[C@]1(CO)CC[C@H](c2ccc3c(c2)CCC(c2ccccc2)C3)C1 (stereo in doubt; 8b) :: 300

Quick one: concentration of N[C@]1(CO)CC[C@H](c2ccc3c(c2)CCC(c2ccccc2)C3)C1 (stereo in doubt; 8a) ?
760

----------
// values below are reported Tmax
# Test details: Tmax in Beagle dog at 0.3 mg/kg, po or 1 mg/kg, iv
# Type: ADME, organism-based, Canis lupus familiaris
# Condition parameters: in vivo

COc1ccccc1CC[C@@H]1CCc2cc([C@H]3CC[C@](N)(CO)C3)ccc2C1 :: 6 h

Quick one: Tmax of COc1ccccc1CC[C@@H]1CCc2cc([C@H]3CC[C@](N)(COP(=O)(O)O)C3)ccc2C1 ?
6 h

----------
# Test details: Metabolic stability in cynomolgus monkey liver microsomes assessed as half-life
# Format: ADME, Macaca fascicularis, Microsome
Readout name: half-life (h)
Numeric only. Scale: h

Quick one: half-life of COc1ccccc1CC[C@@H]1CCc2cc([C@H]3CC[C@](N)(CO)C3)ccc2C1 [UDIFITIMOD] ?
1.83

----------
# Test details: Cardiotoxicity in human iPSC derived cardiomyocytes assessed as reduction in beating rate at 1 nM measured over 2 hrs by multi-electrode array relative to control
# Format: toxicity, cell-based
# Parameters: scale not given: the % may be the effect or the level left
# Condition parameters: stem cell-derived cardiomyocyte, 0.001 µM
Classify: yes when Activity is strictly less than 20%; no when Activity is not.

Answered examples (6):
CCCCCCCCc1ccc(CC[C@](N)(CO)COP(=O)(O)O)cc1 [FTY720-P] :: no
COc1ccccc1CC[C@@H]1CCc2cc([C@H]3CC[C@](N)(COP(=O)(O)O)C3)ccc2C1 :: yes
COc1cccc(CC[C@@H]2CCc3cc([C@H]4CC[C@](N)(COP(=O)(O)O)C4)ccc3C2)c1 :: yes
COc1cccc(CC[C@H]2CCc3cc([C@H]4CC[C@](N)(COP(=O)(O)O)C4)ccc3C2)c1 :: no
COc1ccccc1CC[C@H]1CCc2cc([C@H]3CC[C@](N)(COP(=O)(O)O)C3)ccc2C1 :: yes
COc1ccc(CC[C@@H]2CCc3cc([C@H]4CC[C@](N)(COP(=O)(O)O)C4)ccc3C2)cc1 :: no

Read the next record carefully.
Hello, is Activity of the following compound strictly smaller than 20%? O=C(O)C[C@H]1CCCN(C[C@@H](O)c2ccc(-c3noc(-c4onc(-c5ccccc5)c4C(F)(F)F)n3)cc2)C1
no

----------
// values below are reported concentration at 4 h
# Test details: Drug metabolism in Balb/c mouse blood assessed as concentration of parent compound at 30 mg/kg, po measured at 4 hrs by LC-MS/MS analysis
# Assay type: ADME, organism-based
# Condition parameters: Balb/c, blood, read-out: Ct

N[C@]1(CO)CC[C@H](c2ccc3c(c2)CCC(c2ccccc2)C3)C1 (stereo in doubt; 8a) :: 1500 nM

Proceeding to the next compound to report its concentration at 4 h.
Quick one: concentration at 4 h of CCCCCC[C@@H]1CCc2cc([C@H]3CC[C@](N)(CO)C3)ccc2C1 ?
1000 nM

----------
# Test details: Tmax in Sprague-Dawley rat at 1 mg/kg, po or 1 mg/kg, iv
# Format: ADME, organism-based
# Condition parameters: in vivo
// values below are reported Tmax
Numeric only. Scale: h

COc1ccccc1CC[C@@H]1CCc2cc([C@H]3CC[C@](N)(CO)C3)ccc2C1 :: 6

Quick one: Tmax of COc1ccccc1CC[C@@H]1CCc2cc([C@H]3CC[C@](N)(COP(=O)(O)O)C3)ccc2C1 ?
6
